- studySystem: KDR (Homo sapiens, UniProt P35968)
- Construct: expressed in transfected cells; host or cells: NIH3T3
- Sequence (P35968 20-1356): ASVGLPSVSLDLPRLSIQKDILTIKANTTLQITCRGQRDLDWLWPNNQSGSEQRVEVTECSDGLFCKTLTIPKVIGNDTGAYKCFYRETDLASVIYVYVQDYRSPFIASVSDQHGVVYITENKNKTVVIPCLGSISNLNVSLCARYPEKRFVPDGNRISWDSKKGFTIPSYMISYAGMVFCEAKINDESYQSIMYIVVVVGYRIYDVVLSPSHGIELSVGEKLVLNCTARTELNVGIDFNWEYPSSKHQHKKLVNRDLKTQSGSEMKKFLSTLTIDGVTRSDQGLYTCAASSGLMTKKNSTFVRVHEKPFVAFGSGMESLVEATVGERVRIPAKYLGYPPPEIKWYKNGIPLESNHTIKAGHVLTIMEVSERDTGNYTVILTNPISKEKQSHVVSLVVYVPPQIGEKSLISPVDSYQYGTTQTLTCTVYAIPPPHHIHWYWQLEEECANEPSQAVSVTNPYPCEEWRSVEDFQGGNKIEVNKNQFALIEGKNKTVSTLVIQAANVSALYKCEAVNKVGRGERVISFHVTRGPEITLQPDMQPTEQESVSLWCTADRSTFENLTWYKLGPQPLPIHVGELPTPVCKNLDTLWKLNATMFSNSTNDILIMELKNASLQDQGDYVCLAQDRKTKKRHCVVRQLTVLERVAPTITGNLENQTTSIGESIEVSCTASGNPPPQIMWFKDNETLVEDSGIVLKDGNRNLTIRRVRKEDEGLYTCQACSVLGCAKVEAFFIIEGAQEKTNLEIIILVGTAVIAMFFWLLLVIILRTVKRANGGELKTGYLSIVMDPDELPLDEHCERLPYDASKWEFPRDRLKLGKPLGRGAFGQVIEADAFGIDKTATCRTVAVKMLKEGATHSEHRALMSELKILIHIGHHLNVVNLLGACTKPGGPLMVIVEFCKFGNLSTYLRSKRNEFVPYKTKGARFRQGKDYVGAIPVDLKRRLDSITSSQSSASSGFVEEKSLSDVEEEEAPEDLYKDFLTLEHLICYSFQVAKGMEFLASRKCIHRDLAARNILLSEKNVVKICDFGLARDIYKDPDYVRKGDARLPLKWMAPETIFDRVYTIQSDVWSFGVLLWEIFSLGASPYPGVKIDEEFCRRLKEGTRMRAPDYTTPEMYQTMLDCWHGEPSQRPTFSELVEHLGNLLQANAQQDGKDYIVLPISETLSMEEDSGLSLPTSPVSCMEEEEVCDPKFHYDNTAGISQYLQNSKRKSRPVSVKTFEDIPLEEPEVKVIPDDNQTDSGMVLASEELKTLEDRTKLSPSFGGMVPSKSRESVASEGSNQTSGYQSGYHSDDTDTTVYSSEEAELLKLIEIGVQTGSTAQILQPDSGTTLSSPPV
- assayText: (125I)-VEGF binding inhibition on NIH3T3 cells in which KDR was forced to be expressed
- conditionDescription: KDR-expressing NIH3T3 cells, (125I)-VEGF 25 pM, 90 minutes; Table 20; read-out: IC50 (concentration of 50% binding inhibition)
quantityKind: IC50 (nM)

Record excerpt, results attached:
                                   compound                         studysystem  quantitykind  observedresult
0  CCCCCCCCCCCCCCCCCCOc1ccc(CCC(=O)Nc2ccc(Oc3ccc(C(=O)O)cc3)c(C(=O)O)c2)cc1 [Compound 27]  KDR (Homo sapiens, UniProt P35968)          IC50             510
1  CCCCCCCCCCCCCCCCCCOc1ccc(CCC(=O)Nc2ccc(Oc3ccc(CC(=O)O)cc3)c(C(=O)O)c2)cc1 [Compound 31]  KDR (Homo sapiens, UniProt P35968)          IC50            1230

A = CCCCCCCCCCCCCCCCCCOc1ccc(CCC(=O)Nc2ccc(Sc3cccc(C(=O)O)c3)c(C(=O)O)c2)cc1 [Compound 42]
B = CCCCCCCCCCCCCCCCCCOc1ccc(CCC(=O)Nc2cc(C(=O)O)ccc2Oc2ccc3cc(C(=O)O)ccc3c2)cc1 [Compound 38]
Query: Between A and B , whose measured IC50 reads higher? Response format: the label of the selected entry.
Result: B
(B: 710 nM, A: 450 nM)

* * *

- studySystem: KDR (Homo sapiens)
- Construct: expressed in transfected cells; host or cells: NIH3T3
- assayText: (125I)-VEGF binding inhibition on NIH3T3 cells in which KDR was forced to be expressed
- conditionDescription: KDR-expressing NIH3T3 cells, (125I)-VEGF 25 pM, 90 minutes; Table 21; read-out: IC50 (concentration of 50% binding inhibition)
- Procedure: According to the method described in a document (Cell Growth & Differentiation, vol. 7, pp. 213-221, 1996), the following tests were carried out. […] The binding inhibition index of the test compounds was calculated by the following equation. […]
pIC50: −log10 of the molar value.
quantityKind: pIC50

                                   molecule  quantitykind  observedresult
0  CCCCCCCCCCCCCCCCCCOc1ccc(CC(=O)N(C)c2ccc(SCCC)c(C(=O)O)c2)cc1 [Compound 155]         pIC50            6.17
1  CCCCCCCCCCCCCCCCCCOc1ccc(CCC(=O)Nc2cc(C(=O)O)ccc2SCCC)cc1 [Compound 147]         pIC50            6.24
2  CCCCCCCCCCCCCCCCCCOc1ccc(NCC(=O)Nc2ccc(SC)c(C(=O)O)c2)cc1 [Compound 163]         pIC50            6.39

P = CCCCCCCCCCCCCCCCCCOc1ccc(CCC(=O)Nc2cc(C(=O)O)ccc2SC)cc1 [Compound 145]
Q = CCCCCCCCCCCCCCCCCCOc1ccc(CC(=O)Nc2ccc(SC)c(C(=O)O)c2)cc1 [Compound 116]
Query: Which one would you say has the larger pIC50 value: P , or Q ? Response format: the label of the selected entry.
Result: Q
(Q: 6.80, P: 5.89)

1 = CCCCCCCCCCCCCCOc1ccc(OCCCCCC(=O)Nc2ccc(SC)c(C(=O)O)c2)cc1 [Compound 135]
2 = CCCCCCCCCCCCCCCCCCOc1ccc(CC(=O)N(C)c2ccc(SCCO)c(C(=O)O)c2)cc1 [Compound 161]
Query: Which item exceeds the other in pIC50, 1 or 2 ? Please indicate the selected item by its label.
Result: 1

1 = CCCCCCCCCCCCCCCCCCCCOc1ccc(CCC(=O)Nc2ccc(SC)c(C(=O)O)c2)cc1 [Compound 117]
2 = CCCCCCCCCCCCCCCCCCOc1ccc(CCC(=O)Nc2cc(C(=O)O)ccc2SCC)cc1 [Compound 146]
Query: I would appreciate it if you could say which entry, 1 or 2 , has the lower pIC50 value. Kindly give the label for the entry you pick.
Result: 2
